Molecular target: T1, human IL-2Rγ (common cytokine receptor γ-chain) (human, UniProt P31785 23-262, limits assumed)
T1 construct: Recombinant human IL-2Rγ protein coated on the ELISA plate or immobilised on the CM5 chip; also called hu IL-2R; CD132
T1 sequence: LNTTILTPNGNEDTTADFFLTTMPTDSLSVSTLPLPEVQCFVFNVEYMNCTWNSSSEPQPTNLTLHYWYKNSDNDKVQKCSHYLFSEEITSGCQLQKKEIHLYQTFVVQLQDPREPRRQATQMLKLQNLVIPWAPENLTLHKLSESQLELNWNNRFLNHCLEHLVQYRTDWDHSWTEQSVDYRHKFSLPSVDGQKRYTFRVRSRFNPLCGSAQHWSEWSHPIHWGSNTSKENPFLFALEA
Assay: SPR off-rate ranking, periplasmic extract over immobilised human IL-2Rγ
measuredEndpoint: koff
Please answer using the number first and the unit second.

Some binders with known koff results, for comparison:
binder="FJ1427_P035MP07E12 (VHH, Tested as soluble VHH fragment in periplasmic extract (P.E.); also called Clone nr) VHH: QVQLVESGGGLVQAGGSLRLSCAASGRTLSRYAMGWFRQAPGKEREFVTANSWGGDTYYTDSVEGRFTFSRDNAKNAVYLQMNSLQPEDTAVYYCAAAPTSFATTAYSSSNSYTYWGQGTQVTVSS" readoutvalue="0.00305 s⁻¹"
binder="FJ1427_P035MP07C12 (VHH, Tested as soluble VHH fragment in periplasmic extract (P.E.); also called Clone nr) VHH: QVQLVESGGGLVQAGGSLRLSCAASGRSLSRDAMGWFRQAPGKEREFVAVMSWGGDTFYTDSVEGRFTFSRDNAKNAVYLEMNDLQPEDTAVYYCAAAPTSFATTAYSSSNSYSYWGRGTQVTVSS" readoutvalue="0.00197 s⁻¹"
binder="FJ1427_P035MP07G11 (VHH, Tested as soluble VHH fragment in periplasmic extract (P.E.); also called Clone nr) VHH: QVQLQESGGGLVQAGGSLRLSCAASGRTLSRYAMGWFRQAPGKEREFVTANSWGGDTYYADSVQGRFTFSRDNAKNTVYLQMNSLQPEDTAVYYCAAAPTSFATTAYSSSNSYAYWGQGTQVTVSS" readoutvalue="0.00351 s⁻¹"

Now for the binder whose koff we want.
Given the binder FJ1427_P035MP07A12 (VHH, Tested as soluble VHH fragment in periplasmic extract (P.E.); also called Clone nr) VHH: QVQLQESGGGLVQAGGSLRLSCAASGRTLSRYAMGWFRQAPGSEREFVAASSWGGDTFYADSVEGRFTFSRDNAKNAVYLQMNSLQPEDTAAYYCAAAPTSFPTTAYSSSNSYAYWGQGTQVTVSS , what is its reported koff?
0.0027 s⁻¹
